Test details: Drug degradation in human plasma after 24 hrs
Assay type: ADME, cell-free
Particulars: read-out: Drug degradation
Measured attribute: metabolised at 24 h

[ask] Which metabolised at 24 h is reported for this molecule? COc1c(C)c2c(c(O)c1C/C=C(\C)CCC(=O)OC[C@H]1O[C@@H](n3cnc4c(N)ncnc43)[C@H](O)[C@@H]1O)C(=O)OC2
[reply] 20%

* * *

Tested on: DU-145
Test details: Antiproliferative activity against human DU145 cells
Type: functional, cell-based
Measured attribute: IC50

[ask] Param item = COc1c(C)c2c(c(O)c1C/C=C(\C)CCC(=O)N[C@@H](C(=O)O)C(C)C)C(=O)OC2 ; retrieve measured IC50.
[reply] > 100 µM

[ask] Given the compound COc1c(C)c2c(c(O)c1C/C=C(\C)CCC(=O)N[C@@H](Cc1c[nH]c3ccccc13)C(=O)NC[C@H]1O[C@@H](n3cnc4c(N)ncnc43)[C@H](O)[C@@H]1O)C(=O)OC2 , what is its reported IC50?
[reply] > 100 µM

[ask] Request the reported IC50 associated with COc1c(C)c2c(c(O)c1C/C=C(\C)CCC(=O)OC[C@@H]1O[C@H](n3cnc4c(N)ncnc43)[C@@H](O)[C@H]1O)C(=O)OC2
[reply] 1.5 µM

[ask] Give its IC50 value. Item: COc1c(C)c2c(c(O)c1C/C=C(\C)CCC(=O)NCC(=O)NC[C@H]1O[C@@H](n3cnc4c(N)ncnc43)[C@H](O)[C@@H]1O)C(=O)OC2
[reply] > 100 µM

[ask] What does the data say about its IC50? Entry: COc1c(C)c2c(c(O)c1C/C=C(\C)CCC(=O)N[C@@H](CO)C(=O)O)C(=O)OC2
[reply] > 100 µM

[ask] Name the recorded IC50 for COC(=O)CNC(=O)CC/C(C)=C/Cc1c(O)c2c(c(C)c1OC)COC2=O .
[reply] 3.1 µM

[ask] Suppose we examine the compound COc1c(C)c2c(c(O)c1C/C=C(\C)CCC(=O)N[C@H](C(=O)NC[C@H]1O[C@@H](n3cnc4c(N)ncnc43)[C@H](O)[C@@H]1O)C(C)C)C(=O)OC2 ; what IC50 value has been reported?
[reply] > 100 µM

[ask] # IC50 lookup, item COC(=O)[C@H](NC(=O)CC/C(C)=C/Cc1c(O)c2c(c(C)c1OC)COC2=O)C(C)C
[reply] 16 µM

[ask] Please report the recorded IC50 for COC(=O)[C@H](CO)NC(=O)CC/C(C)=C/Cc1c(O)c2c(c(C)c1OC)COC2=O .
[reply] 13 µM

[ask] // returns reported IC50 for input COc1c(C)c2c(c(O)c1C/C=C(\C)CCC(=O)N[C@H](Cc1c[nH]c3ccccc13)C(=O)O)C(=O)OC2
[reply] > 100 µM

[ask] What value of IC50 has been recorded for this entry: COc1c(C)c2c(c(O)c1C/C=C(\C)CCC(=O)N[C@H](Cc1ccccc1)C(=O)NC[C@H]1O[C@@H](n3cnc4c(N)ncnc43)[C@H](O)[C@@H]1O)C(=O)OC2
[reply] > 100 µM

[ask] Query (compound): COc1c(C)c2c(c(O)c1C/C=C(\C)CCC(=O)N[C@@H](Cc1ccccc1)C(=O)NC[C@H]1O[C@@H](n3cnc4c(N)ncnc43)[C@H](O)[C@@H]1O)C(=O)OC2 ; field requested: IC50
[reply] > 100 µM

[ask] Which IC50 is listed for COC(=O)[C@@H](Cc1c[nH]c2ccccc12)NC(=O)CC/C(C)=C/Cc1c(O)c2c(c(C)c1OC)COC2=O ?
[reply] > 100 µM

[ask] Recorded IC50 of COc1c(C)c2c(c(O)c1C/C=C(\C)CCC(=O)N[C@@H](Cc1ccccc1)C(=O)O)C(=O)OC2 , please.
[reply] > 100 µM

[ask] # input compound: COc1c(C)c2c(c(O)c1C/C=C(\C)CCC(=O)N[C@@H](Cc1c[nH]c3ccccc13)C(=O)O)C(=O)OC2 ; wanted: its IC50
[reply] > 100 µM
